The reported numbers originate from patent US20200199127A1.

Measured Ki of individual entries
target: Human α2δ-1 subunit of Cav2.2 calcium channel (Homo sapiens, UniProt P54289); experiment: Human α2δ-1 subunit of Cav2.2 calcium channel assay, [3H]-Gabapentin binding; details: human α2δ-1 enriched membranes, 15 nM [3H]-Gabapentin; Ki as class symbol
Sequence (P54289 25-1103): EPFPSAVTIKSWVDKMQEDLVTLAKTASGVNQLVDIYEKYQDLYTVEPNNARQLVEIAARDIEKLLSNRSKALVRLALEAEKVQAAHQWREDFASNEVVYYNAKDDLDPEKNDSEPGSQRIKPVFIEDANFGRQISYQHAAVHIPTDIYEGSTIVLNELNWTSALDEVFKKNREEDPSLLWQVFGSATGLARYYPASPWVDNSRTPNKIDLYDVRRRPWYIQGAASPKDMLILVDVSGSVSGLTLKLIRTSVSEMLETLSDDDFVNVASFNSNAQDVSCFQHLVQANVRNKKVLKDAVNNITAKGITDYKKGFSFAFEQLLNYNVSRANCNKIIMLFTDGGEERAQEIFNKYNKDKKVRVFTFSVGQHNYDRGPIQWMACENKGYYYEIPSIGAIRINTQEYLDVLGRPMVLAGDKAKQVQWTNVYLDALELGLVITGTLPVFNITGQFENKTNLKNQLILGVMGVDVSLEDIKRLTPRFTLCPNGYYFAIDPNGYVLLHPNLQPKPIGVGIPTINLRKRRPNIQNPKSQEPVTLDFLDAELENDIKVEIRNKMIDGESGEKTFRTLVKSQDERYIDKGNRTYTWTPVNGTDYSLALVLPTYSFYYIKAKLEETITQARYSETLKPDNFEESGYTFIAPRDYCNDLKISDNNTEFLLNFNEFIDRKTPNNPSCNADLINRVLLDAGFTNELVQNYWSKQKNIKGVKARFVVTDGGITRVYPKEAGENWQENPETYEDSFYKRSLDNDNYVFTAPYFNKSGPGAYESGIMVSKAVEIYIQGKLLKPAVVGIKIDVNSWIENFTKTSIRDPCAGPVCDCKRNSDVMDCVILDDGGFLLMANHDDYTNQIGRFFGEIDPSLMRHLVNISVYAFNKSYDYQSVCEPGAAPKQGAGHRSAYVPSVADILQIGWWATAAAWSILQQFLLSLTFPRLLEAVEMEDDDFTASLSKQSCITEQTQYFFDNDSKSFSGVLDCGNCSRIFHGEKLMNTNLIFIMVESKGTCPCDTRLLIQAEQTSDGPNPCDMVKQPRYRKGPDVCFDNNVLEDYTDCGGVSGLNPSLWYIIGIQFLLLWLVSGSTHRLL

Example cases with answers are listed next.
compound: CCOc1ccc(-n2nc3c(N(C)Cc4cc(OC)ccn4)nnc(C)c3c2C)c(F)c1 [Example 31]
quantity: Ki
resultValue: 100 to 500 nM

compound: CCOc1ccc(-n2nc3c(NCc4ncccc4C(F)(F)F)nnc(C)c3c2C)c(F)c1 [Example 20]
quantity: Ki
resultValue: 100 to 500 nM

compound: Cc1nnc(N(C)Cc2ccccn2)c2nn(-c3ccc(O)cc3)c(C)c12 [Example 47]
quantity: Ki
resultValue: ≥ 5000 nM

[in] Form field: Ki recorded for CCOc1ccc(-n2nc3c(N(C)CCc4ccccc4)nnc(C)c3c2C)c(F)c1 [Example 3] with Human α2δ-1 subunit of Cav2.2 calcium channel (Homo sapiens, UniProt P54289) (enter value)
[out] 100 to 500 nM

[in] Form field: Ki recorded for CCOc1ccc(-n2nc3c(N(C)CC(O)c4ccccc4)nnc(C)c3c2C)c(F)c1 (stereo not shown) [Example 5] with Human α2δ-1 subunit of Cav2.2 calcium channel (Homo sapiens, UniProt P54289) (enter value)
[out] 100 to 500 nM

====

biological target: Human α2δ-1 subunit of Cav2.2 calcium channel (Homo sapiens); test: Human α2δ-1 subunit of Cav2.2 calcium channel assay, [3H]-Gabapentin binding; conditions: human α2δ-1 enriched membranes, 15 nM [3H]-Gabapentin; Ki as class symbol
pKi: −log10 of the molar value.
Measured pKi of individual entries

[in] What value of pKi has been recorded for this entry: CCOc1ccc(-n2nc3c(NCc4ccccn4)nnc(C)c3c2C)c(F)c1
[out] 6.30 to 7.00

[in] What value of pKi has been recorded for this entry: CCOc1ccc(-n2nc3c(N(C)Cc4ccc(C)cn4)nnc(C)c3c2C)c(F)c1
[out] 6.30 to 7.00

[in] What value of pKi has been recorded for this entry: CCOc1ccc(-n2nc3c(NCC(CO)Cc4ccccc4)nnc(C)c3c2C)c(F)c1 (stereo not drawn)
[out] 6.30 to 7.00

[in] What value of pKi has been recorded for this entry: CCOc1ccc(-n2nc3c(N(CCO)Cc4ccccn4)nnc(C)c3c2C)c(F)c1
[out] 5.30 to 6.30

[in] What value of pKi has been recorded for this entry: CCOc1ccc(-n2nc3c(NCc4ccccc4)nnc(C)c3c2C)c(F)c1
[out] 6.30 to 7.00

[in] What value of pKi has been recorded for this entry: CCOc1ccc(-n2nc3c(N(C)CCc4ccccn4)nnc(C)c3c2C)c(F)c1
[out] 6.30 to 7.00

====

Lab note: Ki readings collected with Human norepinephrine transporter (NET) (Homo sapiens, UniProt P23975) for the following compounds.
Sequence (P23975 whole entry): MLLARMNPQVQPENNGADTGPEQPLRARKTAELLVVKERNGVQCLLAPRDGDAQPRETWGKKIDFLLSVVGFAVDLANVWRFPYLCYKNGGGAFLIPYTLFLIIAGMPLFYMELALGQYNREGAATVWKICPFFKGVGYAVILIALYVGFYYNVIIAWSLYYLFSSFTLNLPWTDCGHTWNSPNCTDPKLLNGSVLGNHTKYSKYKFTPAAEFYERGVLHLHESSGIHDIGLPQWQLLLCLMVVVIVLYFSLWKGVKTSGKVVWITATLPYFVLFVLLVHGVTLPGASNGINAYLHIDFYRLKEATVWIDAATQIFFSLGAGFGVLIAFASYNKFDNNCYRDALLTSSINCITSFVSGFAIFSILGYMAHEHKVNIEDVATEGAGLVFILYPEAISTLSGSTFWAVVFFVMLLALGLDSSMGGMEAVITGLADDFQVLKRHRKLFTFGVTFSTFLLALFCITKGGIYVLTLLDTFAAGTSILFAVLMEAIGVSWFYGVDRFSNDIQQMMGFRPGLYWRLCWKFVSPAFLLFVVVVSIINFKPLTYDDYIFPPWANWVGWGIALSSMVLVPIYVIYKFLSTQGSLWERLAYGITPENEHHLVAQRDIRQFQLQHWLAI

Example cases with answers are listed next.
compound: CCOc1ccc(-n2nc3c(N(C)CCC(O)c4ccccc4)nnc(C)c3c2C)c(F)c1 (stereo not drawn)
resultValue: < 100 nM
--
compound: CCOc1ccc(-n2nc3c(N(CCO)Cc4ccccc4)nnc(C)c3c2C)c(F)c1
resultValue: 500 to 1000 nM

[in] What value of Ki has been recorded for this entry: CCOc1ccc(-n2nc3c(N(C)Cc4ccccc4CO)nnc(C)c3c2C)c(F)c1
[out] 100 to 500 nM

[in] What value of Ki has been recorded for this entry: CCOc1ccc(-n2nc3c(N(C)Cc4ncccc4C)nnc(C)c3c2C)c(F)c1
[out] 100 to 500 nM

[in] What value of Ki has been recorded for this entry: CCOc1ccc(-n2nc3c(N(C)Cc4ccn[nH]4)nnc(C)c3c2C)c(F)c1
[out] > 1000 nM

[in] What value of Ki has been recorded for this entry: CCOc1ccc(-n2nc3c(N(C)Cc4cccc(OC)n4)nnc(C)c3c2C)c(F)c1
[out] 500 to 1000 nM

[in] What value of Ki has been recorded for this entry: CCOc1ccc(-n2nc3c(N(C)Cc4cc(OC)ccn4)nnc(C)c3c2C)c(F)c1
[out] > 1000 nM

[in] What value of Ki has been recorded for this entry: CCOc1ccc(-n2nc3c(NC(CCO)c4ccccc4)nnc(C)c3c2C)c(F)c1 (stereo not drawn)
[out] > 1000 nM
